tested on: HBV; test: microbe, parasite or virus in culture; settings: read-out: EC/CC50 (μM), HBV DNA; EXP ID 11/1/2012
observation-type: CC50

Data request: API: value(readout=CC50, system=HBV) for record Nc1nc2c(sc(=O)n2[C@@H]2O[C@H](CO)C[C@H]2O)c(=O)[nH]1 [R06871765]
Data returned: > 200 µM

---

tested on: HBV; test: microbe, parasite or virus in culture; conditions: read-out: EC/CC50 (μM), HBsAg; EXP ID 10/15/2012 VL
observation-type: CC50

Data request: Item under review: `Nc1nc2c(sc(=O)n2[C@@H]2O[C@H](CO)C[C@H]2O)c(=O)[nH]1` . Reported CC50?
Data returned: > 200 µM

---

test system: HBV infected HepaRGd cells; test: Cell viability by CellTiter-Glo, direct treatment; type: cell-based; conditions: EXP ID 10/15/2012 VL; read-out: EC/CC50 (μM), Cell viability
observation-type: CC50

Data request: Item under review: Nc1nc2c(sc(=O)n2[C@@H]2O[C@H](CO)C[C@H]2O)c(=O)[nH]1 [R06871765] . Reported CC50?
Data returned: > 200 µM

---

tested on: HBV infected HepaRGd cells; assay: Cell viability by CellTiter-Glo, direct treatment; format: cell-based; details: EXP ID 10/15/2012 AL; read-out: EC/CC50 (μM), Cell viability
observation-type: CC50

Data request: Item under review: `Nc1nc2c(sc(=O)n2[C@@H]2O[C@H](CO)C[C@H]2O)c(=O)[nH]1` . Reported CC50?
Data returned: > 200 µM

---

experiment: Solubility and solution stability in buffers by UPLC; assay type: physicochemical; conditions: aqueous buffer, thermodynamic from solid; pH 4.0 buffer; read-out: solubility: free-base form of the Formula I compound present per milliliter of buffer solution
observation-type: solubility

Data request: Item under review: `CC(=O)O[C@@H]1C[C@@H](CO)O[C@H]1n1c(=O)sc2cnc(N)nc21` . Reported solubility?
Data returned: ~8000 µg/mL

---

experiment: Cell viability by CellTiter-Glo, direct treatment; format: cell-based; details: human; HBV infected HepaRGd cells
observation-type: CC50 at 7 days

Data request: Item under review: `Nc1nc2c(sc(=O)n2[C@@H]2O[C@H](CO)C[C@H]2O)c(=O)[nH]1` . Reported CC50 at 7 days?
Data returned: > 200 µM

---

experiment: Solubility and solution stability in buffers by UPLC; format: physicochemical; details: buffer solution, simulated gastric fluid, thermodynamic from solid; pH 1.0 buffered solution; read-out: solubility: free-base form of the Formula I compound present per milliliter of buffer solution
observation-type: solubility

Data request: Item under review: CC(=O)O[C@@H]1C[C@@H](CO)O[C@H]1n1c(=O)sc2cnc(N)nc21 [glutaric acid co-crystal] . Reported solubility?
Data returned: > 60 mg/mL

---

assay: Cell viability by CellTiter-Glo, direct treatment; format: cell-based; conditions: human, 7.41 μM; EXP ID 10/15/2012 AL; read-out: Cell viability (% inhibition)
observation-type: cytotoxicity at 7 days, 7.41 μM (%)
Give bare numbers, in %.

Data request: Item under review: `Nc1nc2c(sc(=O)n2[C@@H]2O[C@H](CO)C[C@H]2O)c(=O)[nH]1` . Reported cytotoxicity at 7 days, 7.41 μM?
Data returned: -2.85

---

assay: Cell viability by CellTiter-Glo, direct treatment; type: cell-based; conditions: human, 2.47 μM; EXP ID 10/15/2012 VL; read-out: Cell viability (% inhibition)
observation-type: cytotoxicity at 7 days, 2.47 μM (%)
Answers are plain numbers, in %.

Data request: Item under review: `Nc1nc2c(sc(=O)n2[C@@H]2O[C@H](CO)C[C@H]2O)c(=O)[nH]1` . Reported cytotoxicity at 7 days, 2.47 μM?
Data returned: 0.54

---

experiment: Cell viability by CellTiter-Glo, direct treatment; format: cell-based; details: human, 0.82 μM; EXP ID 10/15/2012 AL; read-out: Cell viability (% inhibition)
observation-type: cytotoxicity at 7 days, 0.82 μM (%)
Numbers only, in %.

Data request: Item under review: `Nc1nc2c(sc(=O)n2[C@@H]2O[C@H](CO)C[C@H]2O)c(=O)[nH]1` . Reported cytotoxicity at 7 days, 0.82 μM?
Data returned: -2.58

---

experiment: Cell viability by CellTiter-Glo, direct treatment; assay type: cell-based; conditions: human, 22.22 μM; EXP ID 10/15/2012 AL; read-out: Cell viability (% inhibition)
observation-type: cytotoxicity at 7 days, 22.22 μM (%)
Answers are plain numbers, in %.

Data request: Item under review: `Nc1nc2c(sc(=O)n2[C@@H]2O[C@H](CO)C[C@H]2O)c(=O)[nH]1` . Reported cytotoxicity at 7 days, 22.22 μM?
Data returned: -2.43

---

assay: Cell viability by CellTiter-Glo, direct treatment; type: cell-based; settings: human, 200 μM; EXP ID 10/15/2012 AL; read-out: Cell viability (% inhibition)
observation-type: cytotoxicity at 7 days, 200 μM (%)
One number for each entry, in %.

Data request: Item under review: `Nc1nc2c(sc(=O)n2[C@@H]2O[C@H](CO)C[C@H]2O)c(=O)[nH]1` . Reported cytotoxicity at 7 days, 200 μM?
Data returned: 12.3

Where do the numbers come from? From patent US9676793B2.
